B1: Poly(rC)-binding protein 1, residues 278 to 350; numbered along this chain, Q15365 (parent)
chain: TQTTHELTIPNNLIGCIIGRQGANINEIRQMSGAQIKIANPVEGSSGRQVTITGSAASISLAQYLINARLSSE

# Variants of: B1
# assay summary: abundance fitness (aPCA) (normalised: wild type 0, dead -1); higher = more abundant; growth selection in yeast, the domain comes from the species named
# particulars: Homo sapiens
Classify as follows. Reported abundance fitness greater than or equal to -0.2: condition met. Reported abundance fitness below: condition not met.

The examples below pair each entry with its known result.
N12V	condition not met
S46K	condition met
I38S	condition not met
P10E	condition not met
Q2K	condition met
G22Q	condition not met

Query :: Quick check, abundance fitness >= -0.2? "M31P"
Result :: condition not met

Query :: // same read-out, input: "S71A"
Result :: condition met

Query :: // same read-out, input: "T4R"
Result :: condition met

Query :: // same read-out, input: "I17T"
Result :: condition not met

Query :: // same read-out, input: "C16M"
Result :: condition met
